Assay: therapeutic index, LD50/ID50 (i.v. lethality over PCA)
Details: rat, in vivo, iv
attribute-measured: selectivity ratio
No unit in the answer, please; the number alone is enough.

Request: Complete the entry with selectivity ratio for N#Cc1ccc(OCC(O)COc2cccc3oc(C(=O)O)cc(=O)c23)cc1.[Na] (centres unmarked)
Result: 3170

====

Assay: in vivo
Conditions: rat, in vivo, iv, THERAPEUTIC INDEX, ratio LD50/ID50
Recorded selectivity ratio values for a group of compounds are listed next.

Would you please look over these solved cases?
N#Cc1ccc(OCC(O)COc2cccc3oc(-c4nnn[nH]4)cc(=O)c23)cc1 (centres unmarked): > 15800
O=c1cc(-c2nnn[nH]2)oc2cccc(OCC(O)COc3ccccc3)c12 (centres unmarked): > 467
O=C(O)c1cc(=O)c2c(OCC(O)COc3cccc4oc(C(=O)O)cc(=O)c34)cccc2o1 [DSCG, disodium chromoglycate]: 1150
O=c1cc(-c2nnn[nH]2)oc2cccc(OCC(O)COc3ccc(O)cc3)c12 (centres unmarked): 1870 to 7480

Consider the additional compound presented here.
Request: Complete the entry with selectivity ratio for CCCc1ccc(OCC(O)COc2cccc3oc(-c4nnn[nH]4)cc(=O)c23)cc1 (centres unmarked)
Result: > 19.7
